Each recorded value in this set is attributed to ChEMBL document CHEMBL5728228.

method_notes: Protein kinase assay (Condition B: Thiol-free Conditions): The IC50 profile of compounds was determined using one protein kinase in a customized, thiol free assay. […] Prior to testing, the 1×10−03 M stock solutions in column 2 of the master plates were subjected to a serial, semi-logarithmic dilution using 100% DMSO as a solvent. […] Column 1 and 7 were filled with 100% DMSO as controls. Subsequently, 2×10 microliter from each well of the serial diluted copy plates were aliquoted with a 96 channel pipettor into two identical sets of “compound dilution plates”. All plates were barcoded for automated identification and tracking purposes. […] All compounds were stored as powder until being solubilized in DMSO. Solubilized compounds were stored as 1×10−02 M/100% DMSO stock solutions. Prior to the assay process, 90 microliters of H2O were added to each well of a set of compound dilution plates. To minimize potential precipitation, the H2O was added to each plate only a few minutes before the transfer of the compound solutions into the assay plates. Each plate was shaken thoroughly, resulting in compound dilution plates with a final of 10% DMSO. For each assay, 5 microliters of solution from each well of the compound dilution plates/10% DMSO were transferred into the assay plate. The final volume of the assay was 50 μl. All compounds were tested at 10 final assay concentrations in the range from 1×10−05 M to 3×10−10 M, in singlicate. The final DMSO concentration in the reaction cocktails was 1% in all cases. A radiometric protein kinase assay (33PanQinase® Activity Assay) was used for measuring the kinase activity of the protein kinase. All kinase assays were performed in 96-well FlashPlates™ from PerkinElmer (Boston, Mass., USA) in a 50 microliter reaction volume. The reaction cocktail was pipetted in four steps in the following order: 20 microliter of assay buffer (standard buffer)·5 microliter of ATP solution (in H2O)·5 microliter of test compound (in 10% DMSO)·20 microliter enzyme/substrate mix. […] For all experiments labeled as “Thiol-free”, all glutathione was exchanged from protein preparations so as to be removed from the assay and final buffer conditions contained no thiol-containing reagents. This was done so there would be no interference with the key cysteines in the proteins of interest.
assay_endpoint: IC50

# example entries with known answers
INSERT INTO assay_data (mol, test_result) VALUES
  ('CCC(=O)Nc1ccc(C(=O)N2CC[C@@H](Nc3ncc(Br)c(OC)n3)C2)cc1', '< 100 nM'),
  ('C=CC(=O)Nc1ccc(C(=O)N2CC[C@@H](Nc3ncc(Cl)c(OC)n3)C2)cc1C', '< 100 nM'),
  ('C=CC(=O)Nc1ccc(C(=O)N2CC[C@@H](Nc3ncc(Br)c(OC)n3)C2)cc1', '< 100 nM'),
  ('C=CC(=O)Nc1ccc(C(=O)N2CC[C@@H](Nc3ncc(Br)cn3)C2)cc1', '< 100 nM'),
  ('C=CC(=O)Nc1ccc(C(=O)N2CC[C@@H](Nc3cc(OC)c(Cl)cn3)C2)cc1', '< 100 nM');

Query: Recorded IC50 for C=CC(=O)N(C)c1ccc(C(=O)N2CC[C@@H](Nc3ncc(Cl)c(OC)n3)C2)cc1 , please?
Response: < 100 nM

Query: Quick one: C=CC(=O)Nc1ccc(C(=O)N2CC[C@@H](Nc3ncc(Cl)c(OC)n3)C2)cc1
Response: < 100 nM
